- target-or-system: Human GSK3beta (Homo sapiens (Human))
- Sequence (P49841 whole entry): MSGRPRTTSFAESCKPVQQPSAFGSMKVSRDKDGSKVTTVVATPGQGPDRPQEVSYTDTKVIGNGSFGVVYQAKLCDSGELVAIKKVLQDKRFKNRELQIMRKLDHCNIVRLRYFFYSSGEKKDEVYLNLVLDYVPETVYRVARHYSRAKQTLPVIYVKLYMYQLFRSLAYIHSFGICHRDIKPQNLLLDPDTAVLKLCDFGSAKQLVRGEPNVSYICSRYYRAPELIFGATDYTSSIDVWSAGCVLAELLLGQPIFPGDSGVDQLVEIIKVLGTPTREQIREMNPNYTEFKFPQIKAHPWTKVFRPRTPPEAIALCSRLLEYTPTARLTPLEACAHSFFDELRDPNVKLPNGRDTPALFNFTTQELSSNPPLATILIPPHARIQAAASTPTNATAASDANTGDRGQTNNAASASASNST
- assay-info: GSK 3β Kinase-Test (Z'-LYTE)
- Type: biochemical
- run-parameters: comparison compounds, Example numbers of WO 2011/092128; read-out: IC50 in μM (GSK3beta-Inhibition)
quantity-kind: IC50

compound	data-value
C[C@@H](Oc1nc(-c2cnn(C3CCCCC3)c2)cc2nn(C)cc12)[C@H]1CNC(=O)C1 [Example 7]	> 10 µM

###

- target-or-system: FLT3 (Homo sapiens (Human), UniProt P36888)
- Sequence (P36888 564-958): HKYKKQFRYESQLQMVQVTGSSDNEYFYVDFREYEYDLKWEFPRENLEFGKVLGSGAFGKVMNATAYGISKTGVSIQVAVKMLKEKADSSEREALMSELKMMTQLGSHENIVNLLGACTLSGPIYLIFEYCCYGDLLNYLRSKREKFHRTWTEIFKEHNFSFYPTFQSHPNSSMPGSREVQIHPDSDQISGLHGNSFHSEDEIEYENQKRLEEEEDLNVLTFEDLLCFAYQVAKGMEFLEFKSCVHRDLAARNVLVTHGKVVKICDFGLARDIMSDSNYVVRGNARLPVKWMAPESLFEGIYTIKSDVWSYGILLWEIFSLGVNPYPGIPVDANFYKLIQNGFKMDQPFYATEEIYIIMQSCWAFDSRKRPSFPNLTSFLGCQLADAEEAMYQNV
- assay-info: FLT3 Kinase Test (Z'-LYTE)
- Assay type: biochemical
- run-parameters: comparison compounds, Example numbers of WO 2011/092128; read-out: IC50 in μM (FLT3-Inhibition)

compound	IC50 [µM]
C[C@@H](Oc1nc(-c2cnn(C3CCCCC3)c2)cc2nn(C)cc12)[C@H]1CNC(=O)C1 [Example 7]	0.452
COc1ccc(-c2cc3nn(C)cc3c(O[C@H](C)[C@H]3CNC(=O)C3)n2)cc1OC [Example 1]	1.53
